measuredOn: T1, human CD4 on the surface of SKW3 cells or human PBMCs (human, UniProt P01730 26-458)
T1 construct: whole, on cells; SKW3 CD4 knockout cells served as the negative cell line; also called hCD4; SKW3 WT
runDescription: FACS confirmation, supernatant on SKW3 WT cells, anti-mouse Fc A647; background gMFI 3300
// values below are reported SKW3 WT anti-mFc 647, gMFI
measureName: SKW3 WT anti-mFc 647, gMFI (gMFI)

75110_03C01A (antibody, V domains shown, Tested here as non-clonal hybridoma supernatant from AlivaMab Mouse Kappa mice (detected with anti-mouse Fc and anti-human kappa)) VH: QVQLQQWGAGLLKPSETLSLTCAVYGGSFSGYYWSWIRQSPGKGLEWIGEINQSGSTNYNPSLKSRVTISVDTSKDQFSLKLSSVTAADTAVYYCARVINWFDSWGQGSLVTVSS VL: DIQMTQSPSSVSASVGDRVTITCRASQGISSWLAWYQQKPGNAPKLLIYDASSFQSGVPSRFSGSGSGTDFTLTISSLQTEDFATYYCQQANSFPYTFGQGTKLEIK	18700
75110_04P08A (antibody, V domains shown, Tested here as non-clonal hybridoma supernatant from AlivaMab Mouse Kappa mice (detected with anti-mouse Fc and anti-human kappa)) VH: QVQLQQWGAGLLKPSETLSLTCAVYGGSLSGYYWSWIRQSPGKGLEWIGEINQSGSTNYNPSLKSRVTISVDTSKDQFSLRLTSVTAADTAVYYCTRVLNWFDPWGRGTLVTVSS VL: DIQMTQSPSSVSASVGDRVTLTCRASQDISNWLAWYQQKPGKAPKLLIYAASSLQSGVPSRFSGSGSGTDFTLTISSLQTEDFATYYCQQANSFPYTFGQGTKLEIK	25300

Just for reference, patent US20220112288A1 is where these values come from.
